System: A2780
Assay Notes: Antiproliferative activity against human A2780 cells incubated for 168 hrs by SRB method
Format: functional, cell-based
Condition Details: A2780, 168 h
Lab note - cut at 0.2 µM for IC50: Met if strictly below, Not met if not.

[[record]]
compound = "C[C@@H](Oc1ccc2c(-c3ccc(F)cc3Cl)cc(=O)oc2c1)C(=O)N1C2CCC1CNC2"
cat = "Met"

[[record]]
compound = "O=C(O)[C@H]1CCCN(C(=O)C2(Oc3ccc4c(-c5ccc(F)cc5Cl)cc(=O)oc4c3)CCC2)C1"
cat = "Not met"

[[record]]
compound = "C[C@@H](Oc1ccc2c(-c3ccc(F)cc3Cl)csc2c1)C(=O)N1CCC[C@H](C(=O)O)C1"
cat = "Not met"

[[record]]
compound = "C[C@@H](Oc1ccc2c(-c3ccc(F)cc3Cl)cc(=O)oc2c1)C(=O)N1CCOCC1"
cat = "Met"

[[record]]
compound = "C[C@@H](Oc1ccc2c(-c3cccc(Cl)c3)cc(=O)oc2c1)C(=O)N1CC2CCC(C1)N2"
cat = "Not met"

[[record]]
compound = "CC(=O)NCCNC(=O)[C@@H](C)Oc1ccc2c(-c3ccc(F)cc3Cl)cc(=O)oc2c1"
cat = "Met"

[[record]]
compound = "C[C@@H](Oc1ccc2c(-c3ccc(F)cc3Cl)cc(=O)oc2c1)C(=O)N1CCN(C)CC1"
cat = "Met"

[[record]]
compound = "C[C@@H](Oc1ccc2c(-c3ccncc3)cc(=O)oc2c1)C(=O)N1CC2CCC(C1)N2"
cat = "Not met"

[[record]]
compound = "C[C@@H](Oc1ccc2c(-c3ccccc3F)cc(=O)oc2c1)C(=O)N1CC2CCC(C1)N2"
cat = "Not met"

[[record]]
compound = "C[C@@H](Oc1ccc2c(-c3ccc(F)cc3Cl)cc(=O)oc2c1)C(=O)Nc1ccccn1"
cat = "Not met"

[[record]]
compound = "C[C@@H](Oc1ccc2c(-c3cccc(F)c3)cc(=O)oc2c1)C(=O)N1CC2CCC(C1)N2"
cat = "Not met"

[[record]]
compound = "O=C(O)[C@H]1CCCN(C(=O)C2CC(Oc3ccc4c(-c5ccc(F)cc5Cl)cc(=O)oc4c3)C2)C1 (some centres undefined)"
cat = "Not met"

[[record]]
compound = "C[C@@H](Oc1ccc2c(-c3cc4ccccc4s3)cc(=O)oc2c1)C(=O)N1CC2CCC(C1)N2"
cat = "Not met"

[[record]]
compound = "C[C@@H](Oc1ccc2c(-c3ccc(F)cc3Cl)coc2c1)C(=O)N1CCC[C@H](C(=O)O)C1"
cat = "Not met"

[[record]]
compound = "Cc1cc(F)ccc1-c1cc(=O)oc2cc(O[C@H](C)C(=O)N3CC4CCC(C3)N4)ccc12"
cat = "Met"

[[record]]
compound = "Cc1ccc(-c2cc(=O)oc3cc(O[C@H](C)C(=O)N4CC5CCC(C4)N5C)ccc23)c(C)c1"
cat = "Met"

[[record]]
compound = "C[C@@H](Oc1ccc2c(-c3ccc(F)cc3Cl)cc(=O)oc2c1)C(=O)Nc1ncco1"
cat = "Not met"

[[record]]
compound = "Cc1ccc(-c2cc(=O)oc3cc(O[C@H](C)C(=O)N4CC5CCC(C4)N5)ccc23)c(C)c1"
cat = "Met"

[[record]]
compound = "Cc1ccccc1-c1cc(=O)oc2cc(O[C@H](C)C(=O)N3CC4CCC(C3)N4)ccc12"
cat = "Met"

[[record]]
compound = "C[C@@H](Oc1ccc2c(-c3ccc(F)cc3Cl)cc(=O)oc2c1)C(=O)N1CCS(=O)(=O)CC1"
cat = "Not met"

[[record]]
compound = "C[C@@H](Oc1ccc2c(C34C[C@H]5C[C@H](C3)C[C@@H](C4)C5)cc(=O)oc2c1)C(=O)N1CC2CCC(C1)N2"
cat = "Met"

[[record]]
compound = "Cc1ccc(-c2cc(=O)oc3cc(O[C@H](C)C(=O)N4CC5CCC(C4)N5)ccc23)cc1"
cat = "Met"

[[record]]
compound = "C[C@@H](Oc1ccc2c(-c3ccc(F)cc3Cl)cc(=O)oc2c1)C(=O)NCCO"
cat = "Met"

[[record]]
compound = "C[C@@H](Oc1ccc2c(-c3ccc(Cl)cc3Cl)cc(=O)oc2c1)C(=O)N1CC2CCC(C1)N2"
cat = "Met"

[[record]]
compound = "Cc1cc(Cl)ccc1-c1cc(=O)oc2cc(O[C@H](C)C(=O)N3CC4CCC(C3)N4)ccc12"
cat = "Met"

[[record]]
compound = "C[C@@H](Oc1ccc2c(-c3ccc(F)cc3Cl)cc(=O)oc2c1)C(=O)N1CC2(COC2)C1"
cat = "Not met"

[[record]]
compound = "C[C@@H](Oc1ccc2c(-c3ccccc3Cl)cc(=O)oc2c1)C(=O)N1CC2CCC(C1)N2"
cat = "Met"

[[record]]
compound = "C[C@@H](Oc1ccc2c(-c3ccc(F)cc3Cl)cc(=O)oc2c1)C(=O)NCCN"
cat = "Not met"

[[record]]
compound = "C[C@@H](Oc1ccc2c(-c3ccc(F)cc3Cl)cc(=O)[nH]c2c1)C(=O)N1CCC[C@H](C(=O)O)C1"
cat = "Not met"


---

Test system: A2780
Assay Notes: Antiproliferative activity against human A2780 cells incubated for 168 hrs by SRB method
Type: functional, cell-based
Condition Details: A2780, 168 h
Parameter Measured: IC50

[[record]]
smiles_text = "Cc1ccc(-c2cc(=O)oc3cc(O[C@H](C)C(=O)N4CC5CCC(C4)N5)ccc23)c(Cl)c1"
parameter_measured = "IC50"
obs_value = "131 nM"

[[record]]
smiles_text = "C[C@@H](Oc1ccc2c(-c3ccsc3)cc(=O)oc2c1)C(=O)N1CC2CCC(C1)N2"
parameter_measured = "IC50"
obs_value = "129 nM"

[[record]]
smiles_text = "C[C@@H](Oc1ccc2c(-c3ccc(F)cc3Cl)cc(=O)oc2c1)C(=O)N1CC2CC(C1)N2"
parameter_measured = "IC50"
obs_value = "112 nM"

[[record]]
smiles_text = "C[C@@H](Oc1ccc2c(-c3ccc(F)cc3Cl)cc(=O)oc2c1)C(=O)N1CC2CCC(C1)N2"
parameter_measured = "IC50"
obs_value = "43 nM"

[[record]]
smiles_text = "CC(C)c1cc(=O)oc2cc(O[C@H](C)C(=O)N3CC4CCC(C3)N4)ccc12"
parameter_measured = "IC50"
obs_value = "2230 nM"

[[record]]
smiles_text = "O=C(O)[C@H]1CCCN(C(=O)COc2ccc3c(-c4ccc(F)cc4Cl)cc(=O)oc3c2)C1"
parameter_measured = "IC50"
obs_value = "373 nM"

[[record]]
smiles_text = "C[C@@H](Oc1cccc(-c2ccc(F)cc2Cl)c1)C(=O)N1CCC[C@H](C(=O)O)C1"
parameter_measured = "IC50"
obs_value = "> 10000 nM"

[[record]]
smiles_text = "C[C@@H](Oc1ccc2c(ccn2-c2ccc(F)cc2Cl)c1)C(=O)N1CCC[C@H](C(=O)O)C1"
parameter_measured = "IC50"
obs_value = "> 10000 nM"

[[record]]
smiles_text = "C[C@@H](Oc1ccc2c(-c3ccc(F)cc3Cl)cc(=O)oc2c1)C(=O)N1CCC[C@H](C(=O)O)C1"
parameter_measured = "IC50"
obs_value = "138 nM"

[[record]]
smiles_text = "C[C@@H](Oc1ccc2c(C3CCCCC3)cc(=O)oc2c1)C(=O)N1CC2CCC(C1)N2"
parameter_measured = "IC50"
obs_value = "252 nM"

[[record]]
smiles_text = "C[C@@H](Oc1ccc2c(-c3ccc(F)cc3Cl)cc(=O)oc2c1)C(=O)NCCN(C)C"
parameter_measured = "IC50"
obs_value = "200 nM"


---

Assay Notes: Inhibition of ND1 transcript level in human A2780 cells at 500 nM measured after 12 hrs by RT-qPCR analysis relative to control
Format: functional
Parameter Measured: inhibition at 0.5 µM (%)

[[record]]
smiles_text = "C[C@@H](Oc1ccc2c(-c3ccc(F)cc3Cl)cc(=O)[nH]c2c1)C(=O)N1CCC[C@H](C(=O)O)C1"
parameter_measured = "inhibition at 0.5 µM"
unit_annotation = "%"
obs_value = 88

[[record]]
smiles_text = "CC(C)c1cc(=O)oc2cc(O[C@H](C)C(=O)N3CC4CCC(C3)N4)ccc12"
parameter_measured = "inhibition at 0.5 µM"
unit_annotation = "%"
obs_value = 93

[[record]]
smiles_text = "C[C@H](Oc1ccc2c(-c3ccc(F)cc3Cl)cc(=O)oc2c1)C(=O)N1CCC[C@H](C(=O)O)C1"
parameter_measured = "inhibition at 0.5 µM"
unit_annotation = "%"
obs_value = 34

